experimentalTarget: Inhibitor of nuclear factor kappa-B kinase subunit epsilon (Homo sapiens);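 note: reported values are averaged percent inhibition figures against human IKKε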
Sequence (whole entry): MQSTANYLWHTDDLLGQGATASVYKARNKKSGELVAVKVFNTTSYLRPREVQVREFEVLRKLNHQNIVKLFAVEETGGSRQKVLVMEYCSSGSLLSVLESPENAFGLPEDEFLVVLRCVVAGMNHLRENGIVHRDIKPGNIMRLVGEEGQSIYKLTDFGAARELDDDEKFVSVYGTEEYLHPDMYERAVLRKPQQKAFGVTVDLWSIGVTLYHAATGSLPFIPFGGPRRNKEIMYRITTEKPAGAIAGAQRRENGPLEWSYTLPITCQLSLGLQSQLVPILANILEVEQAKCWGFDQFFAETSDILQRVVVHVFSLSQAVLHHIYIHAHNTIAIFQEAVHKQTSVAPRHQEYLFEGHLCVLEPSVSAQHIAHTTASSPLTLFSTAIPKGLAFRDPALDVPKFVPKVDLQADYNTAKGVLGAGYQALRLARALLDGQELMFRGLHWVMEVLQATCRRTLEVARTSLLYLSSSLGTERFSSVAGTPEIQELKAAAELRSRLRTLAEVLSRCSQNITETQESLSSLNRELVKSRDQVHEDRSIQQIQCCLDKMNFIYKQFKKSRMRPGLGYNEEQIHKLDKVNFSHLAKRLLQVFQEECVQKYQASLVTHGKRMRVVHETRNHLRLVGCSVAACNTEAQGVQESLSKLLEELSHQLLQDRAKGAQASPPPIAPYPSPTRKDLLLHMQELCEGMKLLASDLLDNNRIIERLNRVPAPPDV
assayConditions: at 1 µM
Record form. Attribute: inhibition. Fill in for each entry.
Give the quantity in %, number only.

Inquiry: Specify inhibition for NS(=O)(=O)c1ccc(N/N=C2\C(=O)Nc3ccc(C(=O)NCc4ccncc4)cc32)cc1 and stop.
Reply text: 49.1

Inquiry: State, in one line, measured inhibition of Fc1ccc(Nc2nccc(-c3c(-c4ccc(C(F)(F)F)cc4)nn4ncccc34)n2)cc1F
Reply text: 4.2

Inquiry: Give inhibition for OCCCNc1nccc(-c2c(-c3ccc(F)cc3)nn3cc(C(F)(F)F)ccc23)n1
Reply text: 0.15

Inquiry: State its inhibition for this compound: COc1cc(N2CCN(C(C)C)CC2)ccc1Nc1nc(Nc2cccc3ncccc23)c2cc[nH]c2n1
Reply text: 0.88

Inquiry: Name the recorded inhibition of the compound listed here: O=C(O[C@H]1CN[C@H](C#Cc2cc3ncnc(Nc4ccc5c(cnn5Cc5ccccc5)c4)c3s2)C1)N1CCOCC1
Reply text: 2.35

Inquiry: Specify measured inhibition for CNC(=O)c1sc(-n2cnc3cc(OC)c(OC)cc32)cc1OCc1ccccc1C(F)(F)F .
Reply text: 5.28

Inquiry: Fill in inhibition for record CCS(=O)(=O)c1ccc(OC)c(Nc2ncc(-c3cccc(C(C)=O)c3)o2)c1
Reply text: 5.1

Inquiry: Specify inhibition for Fc1cccc(COc2ccc(Nc3ncncc3C#Cc3ccccc3)cc2Cl)c1 and stop.
Reply text: 8.55

Inquiry: Specify reported inhibition for the compound shown: CNC(=O)c1cncc(/C=C/c2ccccc2C)c1
Reply text: 5.71

---

I'd be grateful if you could share measured inhibition for these entries.
experimentalTarget: Serine/threonine-protein kinase Nek2 (Homo sapiens) (UniProt P51955);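 note: mean inhibition value from the GSK PKIS kinase screening panel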
Sequence (whole entry): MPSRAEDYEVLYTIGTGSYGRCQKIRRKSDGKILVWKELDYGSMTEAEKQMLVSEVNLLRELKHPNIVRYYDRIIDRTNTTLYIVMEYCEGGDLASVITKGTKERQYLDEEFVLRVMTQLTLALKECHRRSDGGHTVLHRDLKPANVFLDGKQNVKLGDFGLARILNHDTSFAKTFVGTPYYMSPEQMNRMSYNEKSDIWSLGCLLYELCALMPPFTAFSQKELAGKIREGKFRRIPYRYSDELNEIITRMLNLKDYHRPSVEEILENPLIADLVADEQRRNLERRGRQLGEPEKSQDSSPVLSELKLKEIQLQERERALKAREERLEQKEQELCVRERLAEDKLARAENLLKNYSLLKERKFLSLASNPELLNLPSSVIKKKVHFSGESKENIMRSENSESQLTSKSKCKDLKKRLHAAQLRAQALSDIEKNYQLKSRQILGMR
assayConditions: at 0.1 µM
Your answer is read as %, so omit the unit and give the number.

Inquiry: Indicate its recorded inhibition; the compound in question is N#Cc1ccc2c(-c3ccnc(NC4CC4)n3)c(-c3ccc(F)cc3)nn2c1
Reply text: 2.22

Inquiry: Output inhibition of Cc1ccc(-c2cc3c(NC(=O)C4CC4)ncnc3o2)cc1
Reply text: 4.58

Inquiry: For the compound CC1(C)CC(n2cnc(-c3ccc(F)cc3)c2-c2ccnc(N)n2)CC(C)(C)N1 , give its reported inhibition.
Reply text: 1.02

Inquiry: Using the record for Fc1cccc(COc2ccc(Nc3ncncc3C#Cc3ccccc3)cc2Cl)c1 , state its measured inhibition.
Reply text: 5.61

Inquiry: // Input: CS(=O)(=O)CCNCc1ccoc1-c1ccc2ncnc(Nc3ccc(OCc4ccccc4)cc3)c2c1 . Output its inhibition only.
Reply text: 1.71

Where do the numbers come from? From ChEMBL document CHEMBL1961873.
